Entry source: patent US5891909A

target: human α-thrombin (Homo sapiens); construct: Human α-thrombin, human factor Xa and human plasmin were obtained from Enzyme Research Laboratories; purchased Enzyme Research Laboratories (South Bend, Ind.); assay: Thrombin inhibition, Ki determination (hydrolysis of N-succinyl-Ala-Ala-Pro-Arg-p-nitroanilide); type: biochemical; conditions: Table 1; pH 7.5, 37° C.; read-out: Thrombin Ki
Counter-ions that a name gives are not always drawn.
reported_property: log10(Ki) (log10 of the value in nM)

COc1cc(CCCC=NNC(=N)N)cc(OS(=O)(=O)c2ccccc2Cl)c1 [Example 4, hydrochloride] = 3.10
Cc1cc(OCCC=NNC(=N)N)cc(OS(=O)(=O)c2cc(Cl)ccc2Cl)c1 = 1.17
COc1ccc(Cl)cc1S(=O)(=O)Oc1cc(C)cc(OCCC=NN(N)C(=N)N)c1 = 2.27
Cc1cc(OCCC=NNC(=N)N)cc(OS(=O)(=O)c2c(C)nn(C)c2Cl)c1 = 1.88
Cc1cc(OCCC=NNC(=N)N)cc(OS(=O)(=O)c2cc(C(F)(F)F)ccc2Cl)c1 = 3.19
Cc1cc(OCCC=NNC(=N)N)cc(OS(=O)(=O)c2cc(C)ccc2C#N)c1 = 1.52
COc1ccccc1S(=O)(=O)Oc1cc(C)cc(OCCC=NNC(=N)N)c1 = 0.81
Cc1cc(OCC2(C=NNC(=N)N)CC2)cc(OS(=O)(=O)c2ccccc2C#N)c1 = 1.72
COc1ccc(C)cc1S(=O)(=O)Oc1cc(C)cc(OCCC=NNC(=N)N)c1 = 1.68
Cc1cc(OCCC=NNC(=N)N)cc(OS(=O)(=O)c2cccc(F)c2)c1 = 1.49
COc1ccc(Cl)cc1S(=O)(=O)Oc1cc(C)cc(OCCC=NNC(=N)NN)c1 = 2.47
Cc1cc(OCCC=NNC(=N)N)cc(OS(=O)(=O)c2cccc(Cl)c2)c1 = 0.56
Cc1cc(OCCC=NNC(=N)N)cc(OS(=O)(=O)c2ccccc2C(F)(F)F)c1 = 0.92
Cc1cc(OCCC=NNC(=N)N)cc(OS(=O)(=O)c2cccc(C#N)c2)c1 = 1.83
Cc1cc(OCCC=NNC(=N)N)cc(OS(=O)(=O)c2cccnc2)c1 = 1.75
Cc1cc(OCCC=NNC(=N)N)cc(OS(=O)(=O)c2cccc(Cl)c2Cl)c1 = 1.13
Cc1cc(OCCC=NNC(=N)N)cc(OS(=O)(=O)c2cccc3nsnc23)c1 = 1.47

---

target: human α-thrombin (Homo sapiens, UniProt P00734); construct: Human α-thrombin, human factor Xa and human plasmin were obtained from Enzyme Research Laboratories; purchased Enzyme Research Laboratories (South Bend, Ind.); assay: Thrombin inhibition, Ki determination (hydrolysis of N-succinyl-Ala-Ala-Pro-Arg-p-nitroanilide); format: biochemical; conditions: Table 1; pH 7.5, 37° C.; read-out: Thrombin Ki
pKi: −log10 of the molar value. Counter-ions that a name gives are not always drawn.
reported_property: pKi

Cc1cc(OCCC=NNC(=N)N)cc(OS(=O)(=O)c2ccccc2C#N)c1 [Example 13, hydrochloride] = 7.85
Cc1cc(OCCC=NNC(=N)N)cc(OS(=O)(=O)c2cccc3cnccc23)c1 [Example 32] = 7.60
Cc1cc(OCCC=NNC(=N)N)cc(OS(=O)(=O)c2cccc3ccccc23)c1 [Example 25] = 7.20
COc1ccc(OC)c(S(=O)(=O)Oc2cc(C)cc(OCCC=NNC(=N)N)c2)c1 [Example 16] = 7.67
